Every entry's value here was drawn from paper PMC6009956.

- target-entity: aurora A kinase (AURKA) (Homo sapiens, UniProt O14965)
- Construct: purchased BPS Bioscience (assay run externally by the vendor)
- Sequence (O14965 whole entry): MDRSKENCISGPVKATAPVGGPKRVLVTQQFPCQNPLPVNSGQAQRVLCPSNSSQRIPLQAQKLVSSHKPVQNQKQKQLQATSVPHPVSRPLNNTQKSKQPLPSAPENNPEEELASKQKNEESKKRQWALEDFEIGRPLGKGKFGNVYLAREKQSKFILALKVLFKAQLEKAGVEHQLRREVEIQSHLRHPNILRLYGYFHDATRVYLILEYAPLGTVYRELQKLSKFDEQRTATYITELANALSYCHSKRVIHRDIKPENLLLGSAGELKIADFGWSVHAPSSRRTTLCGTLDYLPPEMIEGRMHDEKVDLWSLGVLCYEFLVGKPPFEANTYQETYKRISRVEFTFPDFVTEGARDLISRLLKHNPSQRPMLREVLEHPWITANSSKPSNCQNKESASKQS
- procedure-summary: ADP-Glo kinase assay, Aurora A
- Type: biochemical
- condition-set: Log[nM] 4.5; Set3
Quick rule: Aurora A % Activity Set3 of at least 10% means criterion met, below that means criterion not met.

>  <mol-smiles>
Nc1nc(Nc2cccc(Br)c2)c2cc[nH]c2n1

>  <qualitative-label>
criterion met

$$$$
>  <mol-smiles>
Cc1ccc(Nc2ncnc3[nH]ccc23)cc1

>  <qualitative-label>
criterion met

$$$$
>  <mol-smiles>
Clc1ccc(Nc2ncnc3[nH]ccc23)cc1

>  <qualitative-label>
criterion met

$$$$
>  <mol-smiles>
Cc1ccccc1Nc1ncnc2[nH]ccc12

>  <qualitative-label>
criterion met

$$$$
>  <mol-smiles>
Brc1ccc(Nc2ncnc3[nH]ccc23)cc1

>  <qualitative-label>
criterion not met

$$$$
>  <mol-smiles>
c1ccc(Oc2ccc(Nc3ncnc4[nH]ccc34)cc2)cc1

>  <qualitative-label>
criterion met

$$$$
